Test system: HeLa
Test: Cytotoxicity against human HeLa cells expressing renilla luciferase reporter construct assessed as reduction in cell viability at 12.5 uM by luciferase based analysis
Assay type: toxicity

| structure_smiles | Activity |
| --- | --- |
| N=C(N)Nc1ccc2c(c1)B(O)OC2 | Non-Toxic |
| N=C(N)Nc1ccc(C(=O)Nc2ccc3c(c2)B(O)OC3)cc1 | Non-Toxic |
| O=C(Nc1ccc2c(c1)B(O)OC2)c1ccc(N2CCOCC2)cc1 | Non-Toxic |
| O=C(Nc1ccc2c(c1)B(O)OC2)c1cccc(OCc2ccccc2)c1 | Non-Toxic |

====

Target: Genome polyprotein (dengue virus type 2) (UniProt P29990)
Assay: Inhibition of full length DENV2 NS2B-NS3 protease in human HeLa cells expressing luciferase reporter gene at 12.5 uM incubated for 24 hrs by luminescence analysis relative to control
Assay type: cell-based
readout_kind: inhibition (%)
Write it as a number; the unit % goes unstated.

Here's what some known entries look like.
| structure_smiles | value_unit | inhibition |
| --- | --- | --- |
| O=C(Nc1ccc2c(c1)B(O)OC2)OCc1ccccc1 | % | 67.5 |
| Cc1onc(-c2ccc(F)cc2)c1C(=O)Nc1ccc2c(c1)B(O)OC2 | % | 32.6 |
| CCCCCC(=O)Nc1ccc2c(c1)B(O)OC2 | % | 37.2 |
| COc1cccc(C(=O)Nc2ccc3c(c2)B(O)OC3)c1 | % | 60.1 |

Report inhibition for O=C(Nc1ccc2c(c1)B(O)OC2)c1ccc(N2CCOCC2)cc1 41.1

Report inhibition for CN(c1ccc2c(c1)B(O)OC2)S(=O)(=O)c1ccc(Cl)cc1 24.2

Cited source for all entries: ChEMBL document CHEMBL5113504
